system: A549; experiment: Cytotoxicity against human A549 cells assessed as growth inhibition after 48 hrs by SRB assay; type: functional, cell-based; details: A549, 48 h
reported_metric: IC50 (µM)
Value expressed in µM; do not type the unit.

Some compounds with recorded IC50:
compound: COc1cc2c(cc1CC=C(C)C)/C(=N/O)C[C@@H](c1ccc(O)cc1)O2
value_reported: 11.4
//
compound: COc1cc2c(cc1CC1OC1(C)C)C(=O)C[C@@H](c1ccc(O)cc1)O2 (stereo partly specified)
value_reported: 29.8
//
compound: COc1cc2c(cc1CC=C(C)C)/C(=N/NC(N)=O)C[C@@H](c1ccc(O)cc1)O2
value_reported: 25.3

Task: Give the measured IC50 for COc1ccc([C@@H]2C/C(=N/OCc3cn(-c4ccccc4CO)nn3)c3cc(CC=C(C)C)c(OC)cc3O2)cc1
Output: 30.7

Task: Note IC50 for the compound shown: COc1ccc([C@@H]2C/C(=N/OCc3cn(-c4ccc(C(N)=O)cc4)nn3)c3cc(CC=C(C)C)c(OC)cc3O2)cc1
Output: 7.72

Task: Output IC50 of COc1cc2c(cc1CCC(C)C)C(=O)C[C@@H](c1ccc(O)cc1)O2
Output: 30.5
